System: NOMO1
Assay: cell viability relative to DMSO control; higher = less cytotoxic
Details: RPMI 5 mM glucose + 10% dialyzed FBS; 48 h; 0.0632 µM
REPORTED ENDPOINT: cell viability
Answer format: number, then unit.

Worked examples, 4 compounds total:
# COMPOUND, cell viability
rows = [
    ("CC(C)Oc1ccc(C(=O)N[C@H](CNC(=O)CN(C)C)Cc2ccc(-c3cn4cccc([C@H](C)O)c4n3)cc2)cc1Cl", "113%"),
    ("CC[C@]1(O)C[C@@H]2CN(CCc3c([nH]c4ccccc34)[C@@](C(=O)OC)(c3cc4c(cc3OC)N(C)[C@H]3[C@@](O)(C(N)=O)[C@H](O)[C@]5(CC)C=CCN6CC[C@]43[C@@H]65)C2)C1", "121%"),
    ("CN1CCN(C(=O)O[C@H]2c3nccnc3C(=O)N2c2ccc(Cl)cn2)CC1", "99.1%"),
    ("COc1cc(N2CCC(N(C)C)CC2)ccc1Nc1ncc(Cl)c(Nc2ccccc2P(C)(C)=O)n1", "123%"),
]

# map each compound to its cell viability
1. NC(=O)Nc1cc(-c2cccc(F)c2)sc1C(=O)N[C@H]1CCCNC1
2. CCN1CCN(C(=O)Cc2ccc(Nc3ncc(F)c(Nc4ccc(C(=O)Nc5ccccc5Cl)cc4)n3)cc2)CC1
3. C[C@H]1O[C@H](C[C@H](O)[C@@H]1O)O[C@H]2[C@@H](O)C[C@@H](O[C@@H]2C)O[C@H]3[C@@H](O)C[C@@H](O[C@@H]3C)O[C@H]4CC[C@@]5(C)[C@H](CC[C@@H]6[C@@H]5C[C@@H](O)[C@]7(C)[C@H](CC[C@]67O)C/8=C/C(=O)OC8)C4
4. CCN(c1ccccc1)c1cc(NC)[n+](C)c(C)n1
5. COc1cc(CNC(=O)CCCC/C=C/C(C)C)ccc1O
6. C[C@@]1(C(=O)Nc2ccc(F)nc2)CCCN1c1nc(Nc2cc(C3CC3)[nH]n2)c2cccn2n1

Completion:
136%
107%
114%
122%
106%
97.9%

# map each compound to its cell viability
1. CCOC(=O)Nc1ccc(NCc2ccc(F)cc2)nc1N
2. CC(C)Cc1ccc(C(C)C(=O)O)cc1 (configuration not stated)

Completion:
1: 122%; 2: 72.7%

Data provenance: the supplement of paper PMC11451515
